Every entry's value here was drawn from paper PMC4448979.

# test-target: human P2X7 receptor (HEK-hP2X7) (Homo sapiens)
# Sequence (Q99572 whole entry): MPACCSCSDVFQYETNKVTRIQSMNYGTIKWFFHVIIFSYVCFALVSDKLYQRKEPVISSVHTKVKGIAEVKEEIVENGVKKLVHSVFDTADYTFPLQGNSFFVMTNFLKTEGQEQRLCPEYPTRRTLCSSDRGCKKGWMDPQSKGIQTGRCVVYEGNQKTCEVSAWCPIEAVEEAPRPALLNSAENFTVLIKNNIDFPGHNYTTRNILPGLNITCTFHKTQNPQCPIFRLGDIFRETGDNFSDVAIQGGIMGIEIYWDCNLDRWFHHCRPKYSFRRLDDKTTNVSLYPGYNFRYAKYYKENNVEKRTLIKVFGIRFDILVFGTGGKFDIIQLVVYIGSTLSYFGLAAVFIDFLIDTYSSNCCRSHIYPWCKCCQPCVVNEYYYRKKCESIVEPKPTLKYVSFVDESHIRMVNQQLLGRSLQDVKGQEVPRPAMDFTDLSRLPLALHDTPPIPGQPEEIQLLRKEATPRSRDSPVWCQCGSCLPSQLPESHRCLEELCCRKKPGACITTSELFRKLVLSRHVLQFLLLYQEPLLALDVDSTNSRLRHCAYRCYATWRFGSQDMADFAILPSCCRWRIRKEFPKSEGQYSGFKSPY
# method: YoPro1 dye uptake, fluorescence plate reader
readout-type: IC50 (nM)

> print(dat)
                                  structure  readout.type  meas.value
1  O=C(NCC12CC3CC(CC(C3)C1)C2)c1cc(CCCNCCCO)ccc1Cl          IC50        11.2

----------
# test-target: UniProt Q99572
# method: cytosensor, cell impedance
pEC50: −log10 of the molar value.
readout-type: pEC50

> print(dat)
                                  structure  meas.value
1  Nc1ncnc2c1ncn2[C@@H]1O[C@H](COP(=O)(O)OP(=O)(O)OP(=O)(O)O)[C@@H](OC(=O)c2ccc(C(=O)c3ccccc3)cc2)[C@H]1O        5.02

----------
# test-target: P2X7 receptor of mouse microglia BV2 cells (Mus musculus, UniProt Q9Z1M0)
# Sequence (Q9Z1M0 whole entry): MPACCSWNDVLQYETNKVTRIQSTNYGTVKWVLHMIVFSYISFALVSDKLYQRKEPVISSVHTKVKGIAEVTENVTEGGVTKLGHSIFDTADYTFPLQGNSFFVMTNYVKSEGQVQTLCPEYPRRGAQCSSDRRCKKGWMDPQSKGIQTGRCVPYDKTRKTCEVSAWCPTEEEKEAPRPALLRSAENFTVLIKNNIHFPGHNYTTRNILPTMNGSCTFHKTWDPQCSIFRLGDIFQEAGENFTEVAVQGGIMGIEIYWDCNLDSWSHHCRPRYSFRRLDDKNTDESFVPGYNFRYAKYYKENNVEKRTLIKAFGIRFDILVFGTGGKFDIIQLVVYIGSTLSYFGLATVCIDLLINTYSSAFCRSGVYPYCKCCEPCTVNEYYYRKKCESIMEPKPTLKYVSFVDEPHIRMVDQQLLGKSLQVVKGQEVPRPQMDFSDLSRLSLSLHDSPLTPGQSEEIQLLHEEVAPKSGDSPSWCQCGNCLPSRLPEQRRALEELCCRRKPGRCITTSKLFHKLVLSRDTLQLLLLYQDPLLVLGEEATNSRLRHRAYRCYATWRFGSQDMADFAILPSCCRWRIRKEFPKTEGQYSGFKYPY
# method: whole-cell patch clamp
# experimental-context: antagonist; 100 μmol/L BzATP; -70 mV, room temperature, pH 7.4
pIC50: −log10 of the molar value.
readout-type: pIC50

> print(dat)
                                  structure    meas.value
1  O=C(NCC12CC3CC(CC(C3)C1)C2)c1cc(CCCNCCCO)ccc1Cl  5.52 to 6.00
